Data credit: the RNAGym collection of RNA variant scans (doi:10.1126/science.aae0568)

B1: tRNA (parent)
chain: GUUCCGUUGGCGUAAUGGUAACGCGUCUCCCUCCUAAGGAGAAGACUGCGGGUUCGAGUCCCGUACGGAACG

Variants of: B1
Experiment: yeast fitness relative to wild type (ratio to wild type); higher = fitter; tRNA-Arg(CCU), competitive growth, 37 C, YPD
Variants at the floor of the assay were thinned out.
Overview of reported yeast fitness across a group of variants:
experimental_readout: yeast fitness

>  <sequence_variant>
U16C A42G G67A

>  <reported_measurement>
≤ 0.5

$$$$
>  <sequence_variant>
A15C G52A A57U C60U A65G G68A

>  <reported_measurement>
≤ 0.5

$$$$
>  <sequence_variant>
U32A A36U A70G

>  <reported_measurement>
≤ 0.5

$$$$
>  <sequence_variant>
U2A C31A U47C A69U

>  <reported_measurement>
≤ 0.5

$$$$
>  <sequence_variant>
G10U U26C G39A A65C

>  <reported_measurement>
≤ 0.5

$$$$
>  <sequence_variant>
C4A G10A A21G C22G A65G

>  <reported_measurement>
≤ 0.5

$$$$
>  <sequence_variant>
G17A U19A A21C G44C

>  <reported_measurement>
≤ 0.5

$$$$
>  <sequence_variant>
C11A G17C U47A G68C

>  <reported_measurement>
≤ 0.5

$$$$
>  <sequence_variant>
A14C A15U C27U U32C U35G A70U

>  <reported_measurement>
≤ 0.5

$$$$
>  <sequence_variant>
C4A G17A C27G G63A

>  <reported_measurement>
≤ 0.5

$$$$
>  <sequence_variant>
C11G C24G C27A U28C G67A

>  <reported_measurement>
≤ 0.5

$$$$
>  <sequence_variant>
U3C C11G C34G A36C G52A C60G

>  <reported_measurement>
≤ 0.5

$$$$
>  <sequence_variant>
C11U C61U A65C

>  <reported_measurement>
≤ 0.5

$$$$
>  <sequence_variant>
A14C U19G U59C A69G

>  <reported_measurement>
≤ 0.5

$$$$
>  <sequence_variant>
G10A U16A G23A C30G G51C

>  <reported_measurement>
≤ 0.5

$$$$
>  <sequence_variant>
C30G G41A A65G

>  <reported_measurement>
≤ 0.5

$$$$
>  <sequence_variant>
A15C G23A A42C G48A G50C

>  <reported_measurement>
≤ 0.5

$$$$
>  <sequence_variant>
U35C A70C

>  <reported_measurement>
0.927

$$$$
>  <sequence_variant>
G9C U28C A42U

>  <reported_measurement>
0.647

$$$$
>  <sequence_variant>
G6A C22G U47A

>  <reported_measurement>
≤ 0.5

$$$$
>  <sequence_variant>
C5G U7C C11U G25A

>  <reported_measurement>
≤ 0.5

$$$$
>  <sequence_variant>
C5G C11U C29A

>  <reported_measurement>
0.53

$$$$
>  <sequence_variant>
C24G A42C C55A U59A A70U

>  <reported_measurement>
≤ 0.5

$$$$
>  <sequence_variant>
U7C C33G

>  <reported_measurement>
0.58

$$$$
>  <sequence_variant>
A14U G17A A43C C46U

>  <reported_measurement>
≤ 0.5

$$$$
>  <sequence_variant>
C4A A14U A20C U28G A42G

>  <reported_measurement>
≤ 0.5

$$$$
>  <sequence_variant>
C4U C27U G39C U47A

>  <reported_measurement>
≤ 0.5

$$$$
>  <sequence_variant>
U8G G56A

>  <reported_measurement>
0.568

$$$$
>  <sequence_variant>
U28G U64C

>  <reported_measurement>
0.864

$$$$
>  <sequence_variant>
C4A A37C

>  <reported_measurement>
0.707

$$$$
>  <sequence_variant>
U16A A20G C27U C29A G41C G63A

>  <reported_measurement>
≤ 0.5

$$$$
>  <sequence_variant>
G12A C30U A45C C60G

>  <reported_measurement>
≤ 0.5

$$$$
>  <sequence_variant>
A15C C27A

>  <reported_measurement>
0.554

$$$$
>  <sequence_variant>
U3A A65C A70U

>  <reported_measurement>
0.66

$$$$
>  <sequence_variant>
C11U C24A G68C

>  <reported_measurement>
≤ 0.5

$$$$
>  <sequence_variant>
U26A C30U A42C C46U A65G

>  <reported_measurement>
0.859

$$$$
>  <sequence_variant>
G12C A57C

>  <reported_measurement>
0.545

$$$$
